# target: MyD88^TIR (Homo sapiens, UniProt Q99836)
# Construct: MyD88 (residues 148–296); 6xHis; made in house; host or cells: E. coli BL21 (DE3)
# Sequence (Q99836 148-296): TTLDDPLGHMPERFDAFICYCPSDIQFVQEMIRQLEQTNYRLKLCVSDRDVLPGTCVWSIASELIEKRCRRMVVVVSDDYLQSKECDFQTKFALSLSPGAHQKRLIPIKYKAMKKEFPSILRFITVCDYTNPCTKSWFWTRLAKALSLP
# assay_procedure: T‐Surf phage library (P8 and P3) selection against MyD88^TIR, four rounds, NGS read counts
# Type: binding
# condition_parameters: P3 library, selection against MyD88, rank by count after grouping
Kindly state P3_MyD88 Rank (after) for each of the entries shown.

Record RTLLENLWASVDISHK . Reported P3_MyD88 Rank (after): 732

Record KEVEGWRDALYEAANLS . Reported P3_MyD88 Rank (after): 684

Record YLKWGYVVLGSSAFC . Reported P3_MyD88 Rank (after): 714

Record YTALTNRGFHTFRDHH . Reported P3_MyD88 Rank (after): 687

Record NQWRNELTPAANLSGW . Reported P3_MyD88 Rank (after): 698

Record YTALTNSGCHTFRVND . Reported P3_MyD88 Rank (after): 689

Record YYLDPSHLRKQSGESERL . Reported P3_MyD88 Rank (after): 728

Record SSFREGLCRLLELSKQ . Reported P3_MyD88 Rank (after): 725

Record SENYVTSPCAVDELVP . Reported P3_MyD88 Rank (after): 712

Origin of measurements: paper PMC11714206
